Provide the reported IL6 Expression Levels of each item.
Test system: iPS(Foreskin)-4-derived d8 HPTC-like cells
STATED_CONDITIONS: human, 16 h, 1000 μg/ml
API note: the answer field is a bare number with no unit suffix.

What does the data say about its IL6 Expression Levels? Entry: `O=c1[nH]cc(F)c(=O)[nH]1`
1.1

Return reported IL6 Expression Levels; argument: `COc1ccc2[nH]cc(CCNC(C)=O)c2c1`
1.1

Endpoint output: IL6 Expression Levels of `CCOc1ccc(NC(C)=O)cc1` . Value?
0.7

Please look up its IL6 Expression Levels: `NC(=O)c1ncn([C@@H]2O[C@H](CO)[C@@H](O)[C@H]2O)n1`
1.0

Fill in the blank: the reported IL6 Expression Levels of `NCC(=O)O` is ____.
1.9

Bench note: what IL6 Expression Levels did `CC(C)[C@H](N)C(=O)OCCOCn1cnc2c(=O)[nH]c(N)nc21` show?
2.8

Reported IL6 Expression Levels, compound C[C@H]1O[C@H](O[C@H]2[C@H](O)[C@@H](O)[C@@H](O[C@H]3[C@H](O)[C@@H](O)C(O)O[C@@H]3CO)O[C@@H]2CO)[C@H](O)[C@@H](O)[C@@H]1N[C@H]1C=C(CO)[C@@H](O)[C@H](O)[C@H]1O (some centres unmarked) : ____
1.4

Fill in: IL6 Expression Levels of `COc1ccc(C[C@H](N)C(=O)N[C@H]2[C@@H](O)[C@H](n3cnc4c(N(C)C)ncnc43)O[C@@H]2CO)cc1` is ___
26.6
